# tgt: human small intestine carboxylesterase (hiCE) (Homo sapiens, UniProt O00748)
# experiment-notes: biochemical
# Assay type: biochemical
pKi: −log10 of the molar value.
measured-quantity: pKi

Consider the worked cases shown below.
O=C(C(=O)c1ccc(O)c([N+](=O)[O-])c1)c1ccc(O)c([N+](=O)[O-])c1 : < 4.00
O=C(C(=O)c1ccc(Br)c([N+](=O)[O-])c1)c1ccc(Br)c([N+](=O)[O-])c1 : < 4.00

Continue with the next compound.
[in] Can you look up pKi on human small intestine carboxylesterase (hiCE) (Homo sapiens, UniProt O00748) for `COc1ccc(C(=O)C(=O)c2ccc(OC)c([N+](=O)[O-])c2)cc1[N+](=O)[O-]` ?
[out] < 4.00

====

# tgt: rabbit liver carboxylesterase (rCE) (Oryctolagus cuniculus)
# experiment-notes: biochemical
# Type: biochemical
pKi: −log10 of the molar value.
measured-quantity: pKi

[in] Can you share its pKi? I mean this molecule: `O=C(C(=O)c1ccc(O)c([N+](=O)[O-])c1)c1ccc(O)c([N+](=O)[O-])c1`
[out] < 4.00

====

# tgt: human intestinal carboxylesterase in U373MGhiCE cells (Homo sapiens, UniProt O00748)
# Construct: expressed in transfected cells; host or cells: U373MG human glioma cells (U373MGhiCE)
# experiment-notes: Inhibition of intracellular carboxylesterase in U373MGhiCE cells
# Assay type: cell-based
# inhibition at 10 µM annotations
// units = %; emit number, no label

Consider the worked cases shown below.
COc1cc(OC)c(NC(=O)c2cc3ccccc3cc2O)cc1Cl : 0
O=S(=O)(Nc1ccc(NS(=O)(=O)c2ccccc2)cc1)c1ccccc1 : 5.5
Cc1cccc(C)c1NC(=O)Nc1ccc([N+](=O)[O-])cc1 : 0
CCOc1ccc(NS(=O)(=O)c2ccc(Cl)cc2)cc1 : 9.6
Cc1cc([N+](=O)[O-])ccc1NC(=O)Nc1ccccc1 : 0

Continue with the next compound.
[in] Can you share its inhibition at 10 µM? I mean this compound: `O=S(=O)(Nc1ccc(Oc2ccccc2)cc1)c1ccc(Br)cc1`
[out] 0

====

# tgt: rabbit liver carboxylesterase (rCE) (Oryctolagus cuniculus, UniProt P12337)
# Sequence (P12337 19-565): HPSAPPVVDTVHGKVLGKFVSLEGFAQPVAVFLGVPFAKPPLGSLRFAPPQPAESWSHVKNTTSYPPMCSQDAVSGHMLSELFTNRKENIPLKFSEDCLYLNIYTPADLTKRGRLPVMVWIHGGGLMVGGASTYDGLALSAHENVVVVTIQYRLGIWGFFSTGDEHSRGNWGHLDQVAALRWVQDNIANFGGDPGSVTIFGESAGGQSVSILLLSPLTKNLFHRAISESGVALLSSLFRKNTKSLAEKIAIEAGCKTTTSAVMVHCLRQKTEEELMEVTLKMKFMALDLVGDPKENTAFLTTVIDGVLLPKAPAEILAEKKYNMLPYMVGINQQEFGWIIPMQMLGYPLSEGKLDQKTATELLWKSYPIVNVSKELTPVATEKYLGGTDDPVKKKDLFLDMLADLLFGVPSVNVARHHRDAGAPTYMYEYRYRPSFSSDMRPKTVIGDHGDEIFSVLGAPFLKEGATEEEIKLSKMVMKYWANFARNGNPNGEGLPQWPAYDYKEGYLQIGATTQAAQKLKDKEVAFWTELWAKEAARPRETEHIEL
# experiment-notes: biochemical
# Type: biochemical
# conditions: o-NPA as substrate; Table 5; read-out: Ki rCE
pKi: −log10 of the molar value.
measured-quantity: pKi

Consider the worked cases shown below.
Cc1cc(C)c(S(=O)(=O)Nc2ccccc2)cc1S(=O)(=O)Nc1ccccc1 : < 4.00
O=S(=O)(Nc1c(Cl)c(Cl)c(NS(=O)(=O)c2ccccc2)c(Cl)c1Cl)c1ccccc1 : < 4.00

Continue with the next molecule.
[in] Can you share its pKi? I mean this molecule: `O=S(=O)(Nc1ccc(NS(=O)(=O)c2ccc(Cl)cc2)c2ccccc12)c1ccc(Cl)cc1`
[out] < 4.00

====

# tgt: human small intestine carboxylesterase (hiCE) (Homo sapiens, UniProt O00748)
# Sequence (O00748 27-559): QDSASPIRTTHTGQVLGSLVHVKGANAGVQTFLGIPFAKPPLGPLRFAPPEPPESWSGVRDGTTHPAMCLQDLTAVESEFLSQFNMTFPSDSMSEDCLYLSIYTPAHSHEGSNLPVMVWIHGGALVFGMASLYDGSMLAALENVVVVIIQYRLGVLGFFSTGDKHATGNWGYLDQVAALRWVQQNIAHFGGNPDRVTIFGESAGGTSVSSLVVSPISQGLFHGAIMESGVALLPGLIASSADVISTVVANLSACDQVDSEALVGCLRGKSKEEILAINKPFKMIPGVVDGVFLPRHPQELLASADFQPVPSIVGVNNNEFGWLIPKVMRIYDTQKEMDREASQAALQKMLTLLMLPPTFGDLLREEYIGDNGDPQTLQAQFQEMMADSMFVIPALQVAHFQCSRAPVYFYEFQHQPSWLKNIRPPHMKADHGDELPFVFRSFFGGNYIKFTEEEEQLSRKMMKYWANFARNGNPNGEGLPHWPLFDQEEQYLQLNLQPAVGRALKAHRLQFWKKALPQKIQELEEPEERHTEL
# experiment-notes: biochemical
# Assay type: biochemical
# conditions: o-NPA as substrate; Table 5; read-out: Ki hiCE
# pKi annotations
In plain terms, pKi is the concentration in mol/L turned into minus its base-10 logarithm.

Consider the worked cases shown below.
Cc1cc(C)c(S(=O)(=O)Nc2ccccc2)cc1S(=O)(=O)Nc1ccccc1 : 6.66
O=C(NC(Cc1ccccc1)C(=O)Oc1ccc2ccccc2c1)c1ccccc1 (stereo not shown) : 7.21
Cc1cccc(C)c1NC(=O)Nc1ccc([N+](=O)[O-])cc1 : 6.49

[in] Can you look up pKi on human small intestine carboxylesterase (hiCE) (Homo sapiens, UniProt O00748) for `Cc1cc([N+](=O)[O-])ccc1NC(=O)Nc1cccc(F)c1` ?
[out] 5.89
